Measured IC50 at 48 h values are reported for all entries that follow.
# EXPERIMENTAL DETAILS: Cytotoxicity against green monkey Vero cells incubated for 48 hrs by CCK-8 assay
# Type: toxicity, cell-based
# EXPERIMENTAL SETUP: green monkey (Chlorocebus sabaeus)
MEASUREMENT TYPE: IC50 at 48 h

{"columns": ["INPUT SMILES", "RESULT"],
 "data": [
  ["Fc1cc2c(c3ncccc13)OCN(CCc1ccc(Br)cc1)C2", "> 50 µg/mL"],
  ["Fc1cc2c(c3ncccc13)OCN(Cc1cccc(Cl)c1)C2", "34 µg/mL"],
  ["Fc1cc2c(c3ncccc13)OCN(CCCCc1ccccc1)C2", "36.1 µg/mL"],
  ["Fc1cc2c(c3ncccc13)OCN(Cc1ccc(Cl)cc1)C2", "> 50 µg/mL"],
  ["Clc1cccc(CN2COc3c(cc(Cl)c4cccnc34)C2)c1", "> 50 µg/mL"],
  ["Fc1cc2c(c3ncccc13)OCN(CCc1ccc(Cl)cc1)C2", "> 50 µg/mL"],
  ["Clc1ccc(CCN2COc3c(cc(Cl)c4cccnc34)C2)cc1", "> 50 µg/mL"],
  ["Fc1cccc(CCN2COc3c(cc(F)c4cccnc34)C2)c1", "21.3 µg/mL"],
  ["Fc1cc2c(c3ncccc13)OCN(Cc1ccc(C(F)(F)F)cc1)C2", "46.1 µg/mL"],
  ["Clc1cc2c(c3ncccc13)OCN(Cc1ccccc1)C2", "> 50 µg/mL"],
  ["Fc1cc2c(c3ncccc13)OCN(CCc1cccc(Br)c1)C2", "> 50 µg/mL"],
  ["Clc1cc2c(c3ncccc13)OCN(CCCCc1ccccc1)C2", "> 50 µg/mL"],
  ["Fc1cc2c(c3ncccc13)OCN(CCCc1ccccc1)C2", "13.6 µg/mL"],
  ["Clc1cc2c(c3ncccc13)OCN(CCc1ccccc1)C2", "14.3 µg/mL"],
  ["Fc1cc2c(c3ncccc13)OCN(CCc1ccccc1)C2", "14.7 µg/mL"],
  ["Fc1ccc(CCN2COc3c(cc(F)c4cccnc34)C2)cc1", "27.7 µg/mL"],
  ["Fc1cc2c(c3ncccc13)OCN(CCOc1ccc(Cl)cc1)C2", "> 50 µg/mL"],
  ["Fc1ccc(CCN2COc3c(cc(Cl)c4cccnc34)C2)cc1", "40.1 µg/mL"],
  ["Fc1cc2c(c3ncccc13)OCN(CCc1cccc(Cl)c1)C2", "> 50 µg/mL"],
  ["Clc1ccc(CN2COc3c(cc(Cl)c4cccnc34)C2)cc1", "> 50 µg/mL"],
  ["Clc1cc2c(c3ncccc13)OCN(CCCc1ccccc1)C2", "> 50 µg/mL"],
  ["Clc1cc2c(c3ncccc13)OCN(CCc1ccc(Br)cc1)C2", "> 50 µg/mL"],
  ["Fc1ccc(CN2COc3c(cc(Cl)c4cccnc34)C2)c(F)c1", "> 50 µg/mL"]
]}

* * *

Measured pKd values are reported for all entries that follow.
# EXPERIMENTAL DETAILS: Binding affinity to His-tagged LptA (unknown origin) assessed as dissociation constant incubated for 60 to 120 s by BLI analysis
pKd: −log10 of the molar value.

{"columns": ["INPUT SMILES", "pKd"],
 "data": [
  ["Clc1cc2c(c3ncccc13)OCN(CCCc1ccccc1)C2", 7.49],
  ["Clc1ccc(CN2COc3c(cc(Cl)c4cccnc34)C2)cc1", 7.26],
  ["Clc1cc2c(c3ncccc13)OCN(CCc1ccccc1)C2", 8.83]
]}
